tested on: CCRF-CEM; assay: NCI tumour cell line growth inhibition, 48 h
Activity calls are given as the source filed them. Cut-off read from the data, not from the text of the source: active = GI50 up to about 1.1 µM and inactive = higher.
Response enum: y for active, n for inactive

// known answers, use as guide
COC(=O)C1(C)NCCc2c1[nH]c1ccccc21 (stereo not drawn): n
N#Cc1c(Nc2ccccc2)[n+]([O-])c2ccc(Cl)cc2[n+]1[O-]: n
c1cc(CSP234N5CCN2CCN3CCN4CC5)ccc1CSP123N4CCN1CCN2CCN3CC4: n
C/C(=N/NC(=S)N1CCN(C(=S)N/N=C(/C)c2ccccn2)CC1)c1ccccn1: y
COC(=O)/C=C(/C(=O)OC)c1cc2ccc3c([nH]c4ccccc43)c(C)c-2c1: n

Task item: Which result was noted for this compound in the test: `COc1cc([C@@H]2c3cc4c(cc3[C@@H](c3c(O)cc(O)c5c3O[C@H](c3ccc(O)c(O)c3)[C@H](OC(=O)c3cc(O)c(O)c(O)c3)C5)[C@H]3COC(=O)[C@H]23)OCO4)cc(OC)c1OC`
Reply: n

Task item: Can you check `COc1cc2c(cc1OCCCCN1C(=O)c3cccc4cccc(c34)C1=O)N=C[C@@H]1CCCN1C2=O` next?
Reply: n

Task item: Note, next up: `COc1ccc(C[C@H](N)C(=O)N2C[C@@H](CO)C[C@@H](n3ccc(=O)[nH]c3=O)C2)cc1`
Reply: n

The reported measurements were obtained from ChEMBL document CHEMBL1201862.
